System: MDBK line
Assay: MTT Cell Proliferation Assay, MDBK cells
Format: cell-based, bovine
Details: Bos taurus, MDBK, second value of 'a/b (c)'; taken as MDBK cells; read-out: MTT Screen, second value of cell
pIC50: −log10 of the molar value.
Decide using pIC50: a value greater than or equal to 5 is YES, a smaller one is NO.

Illustrative cases are given below, each with its answer.
>>> class_assignment("CN(Cc1ccccc1)S(=O)(=O)c1ccc(NC(=S)NC(=O)/C=C/c2ccccc2)cc1 [AD4-12126]")
"NO"
>>> class_assignment("CCOC(=O)CCC(=O)NC(=S)Nc1ccc(S(=O)(=O)Nc2cc(OC)nc(OC)n2)cc1 [AD4-11980]")
"NO"
>>> class_assignment("Cc1ccc(NS(=O)(=O)c2ccc(NC(=S)NC(=O)CC(C)C)cc2)c(C)c1 [AD4-12010]")
"YES"

[Q] Does the molecule CN1CCN(S(=O)(=O)c2ccc(NC(=S)NC(=O)/C=C/c3cccs3)cc2)CC1 [AD4-12060] have recorded pIC50 that is 5 or more?
[A] NO

[Q] Does the molecule CN1CCN(S(=O)(=O)c2ccc(NC(=S)NC(=O)/C=C/c3ccccc3Cl)cc2)CC1 [AD4-12059] have recorded pIC50 that is 5 or more?
[A] NO
